Documented emission maximum across a set of molecules
METHOD DESCRIPTION: solvent given as SMILES
TEST CONDITIONS: in CN(C)C=O

# MOLECULE, emission maximum, nm
rows = [
    ("COc1ccc(/C=C/c2ccc(-c3nnc(-c4ccc(-c5cc6ccccc6s5)cc4)o3)cc2)cc1", 463),
    ("CCCCC1(c2ccccc2)Nc2c(-c3ccc(OC)cc3)ccc(-c3ccc(OC)cc3)c2N=C1c1ccccc1 (stereo not drawn)", 568),
    ("CCC1(CC)c2cc(B(c3c(C)cc(C)cc3C)c3c(C)cc(C)cc3C)ccc2-c2ccc(N(c3ccccc3)c3ccc4c(c3)C(CC)(CC)c3cc(B(c5c(C)cc(C)cc5C)c5c(C)cc(C)cc5C)ccc3-4)cc21", 533),
    ("CCCCCCOc1ccc(C#Cc2ccc(C#Cc3ccc(OCCCCCC)c(OCCCCCC)c3)c3nsnc23)cc1OCCCCCC", 600),
    ("CN(C)c1ccc2nc(/C=C/c3cc4c5c(c3)CCCN5CCC4)c(=O)oc2c1", 704),
    ("c1ccc2c(c1)[nH]c1cccnc12", 371),
    ("CCCCC(CC)Cn1c2cc(C#N)c(-c3ccc(N(c4ccccc4)c4ccccc4)cc3)cc2c2cc(-c3ccc(N(c4ccccc4)c4ccccc4)cc3)c(C#N)cc21 (stereo not drawn)", 542),
    ("N#Cc1c2nc3ccccn3c2nc2nc3ccccn3c12", 540),
]
